The measured values listed here are drawn from ChEMBL document CHEMBL1127798.

Recorded pKd, one value per entry.
Biological target: Dihydrofolate reductase (Homo sapiens)
Assay: Tested for the apparent dissociation constant for binding of compound to binary NADPH complex with human dihydrofolate reductase using equation 11
pKd: −log10 of the molar value.
Measure Name: pKd

Compound: CCCN1C=CC=C2C(=O)NC(N)N=C21 (stereo not drawn)
Value: 5.19
//
Compound: CC1=C2C(=O)NC(N)N=C2N(CC(C)C)C=C1 (stereo not drawn)
Value: 5.52
//
Compound: CCCN1C(C)=CC=C2C(=O)NC(N)N=C21 (stereo not drawn)
Value: 5.57

###

Target: Dihydrofolate reductase (Homo sapiens, UniProt P00374)
Assay: Tested for the apparent dissociation constant for binding of compound to ternary NADPH complex with human dihydrofolate reductase using equations 15 and 16
Measure Name: Kd

Compound: CCCN1C(C)=CC=C2C(=O)NC(N)N=C21 (stereo not drawn)
Value: 1000 nM

Compound: CCCN1C=CC=C2C(=O)NC(N)N=C21 (stereo not drawn)
Value: 1700 nM

Compound: CC1=C2C(=O)NC(N)N=C2N(CC(C)C)C=C1 (stereo not drawn)
Value: 57 nM

###

Target: Dihydrofolate reductase (Homo sapiens, UniProt P00374)
Sequence (P00374 whole entry): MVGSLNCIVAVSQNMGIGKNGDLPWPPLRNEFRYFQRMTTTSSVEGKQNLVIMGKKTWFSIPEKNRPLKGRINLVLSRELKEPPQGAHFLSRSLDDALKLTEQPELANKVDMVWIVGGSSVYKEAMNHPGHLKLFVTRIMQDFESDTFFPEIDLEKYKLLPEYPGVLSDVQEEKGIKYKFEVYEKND
Assay: Tested for the apparent dissociation constant for binding of compound to binary NADPH complex with human dihydrofolate reductase using equation 4
pKd: −log10 of the molar value.
Recorded pKd, one value per entry.

Compound: CCCN1C=CC=C2C(=O)NC(N)N=C21 (stereo not drawn)
pKd: 7.68
--
Compound: CCCN1C(C)=CC=C2C(=O)NC(N)N=C21 (stereo not drawn)
pKd: 9.30
--
Compound: CC1=C2C(=O)NC(N)N=C2N(CC(C)C)C=C1 (stereo not drawn)
pKd: 9.70

###

Recorded Kd, one value per entry.
Target: Dihydrofolate reductase (Homo sapiens, UniProt P00374)
Sequence (P00374 whole entry): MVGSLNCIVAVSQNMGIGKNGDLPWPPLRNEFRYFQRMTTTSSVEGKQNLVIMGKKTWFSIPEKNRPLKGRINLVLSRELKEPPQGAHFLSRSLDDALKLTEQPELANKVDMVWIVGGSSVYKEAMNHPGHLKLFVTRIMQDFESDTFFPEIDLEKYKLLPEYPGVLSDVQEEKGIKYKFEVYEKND
Experiment: Apparent dissociation constant at pH 6.6 for human dihydrofolate reductase in the absence of cofactor NADPH

Compound: CN1C=CC=C2C(=O)NC(N)N=C21 (stereo not given)
Kd: 118 µM
--
Compound: CCCN1C=C(C)C=C2C(=O)NC(N)N=C21 (stereo not given)
Kd: 108 µM
--
Compound: CC1=CC=C2C(=O)NC(N)N=C2N1C (stereo not given)
Kd: 21 µM
--
Compound: CCN1C=C(C)C=C2C(=O)NC(N)N=C21 (stereo not given)
Kd: 130 µM
--
Compound: CC(C)CN1C=CC=C2C(=O)NC(N)N=C21 (stereo not given)
Kd: 2.2 µM
--
Compound: CCCN1C=CC=C2C(=O)NC(N)N=C21 (stereo not given)
Kd: 12 µM
--
Compound: CC1=C2C(=O)NC(N)N=C2N(CCC(C)C)C=C1 (stereo not given)
Kd: 1.8 µM
--
Compound: NC1N=C2C(=CC=CN2Cc2ccccc2)C(=O)N1 (stereo not given)
Kd: 1.7 µM
--
Compound: CC1=CN(C)C2=NC(N)NC(=O)C2=C1 (stereo not given)
Kd: 31 µM
--
Compound: CC1=C2C(=O)NC(N)N=C2N(CC(C)C)C=C1 (stereo not given)
Kd: 2.4 µM
--
Compound: CC1=C2C(=O)NC(N)N=C2N(C)C=C1 (stereo not given)
Kd: 21 µM
--
Compound: CC1=CN(C(C)C)C2=NC(N)NC(=O)C2=C1 (stereo not given)
Kd: 60 µM
--
Compound: CCN1C=CC=C2C(=O)NC(N)N=C21 (stereo not given)
Kd: 60 µM
--
Compound: CCCN1C(C)=CC=C2C(=O)NC(N)N=C21 (stereo not given)
Kd: 3.4 µM
--
Compound: CC(C)N1C=CC=C2C(=O)NC(N)N=C21 (stereo not given)
Kd: 34 µM

###

Target: Dihydrofolate reductase (Homo sapiens)
Test: Tested for the apparent dissociation constant for binding of compound to ternary NADPH complex with human dihydrofolate reductase using equation 11
pKd: −log10 of the molar value.
Recorded pKd, one value per entry.
Measure Name: pKd

Compound: CCCN1C(C)=CC=C2C(=O)NC(N)N=C21 (stereo not drawn)
Value: 6.35
--
Compound: CC1=C2C(=O)NC(N)N=C2N(CC(C)C)C=C1 (stereo not drawn)
Value: 7.52
--
Compound: CCCN1C=CC=C2C(=O)NC(N)N=C21 (stereo not drawn)
Value: 6.08

###

Biological target: Dihydrofolate reductase (Homo sapiens, UniProt P00374)
Assay: Tested for the apparent dissociation constant for binding of compound to binary NADPH complex with human dihydrofolate reductase using equations 11 and 12
Measure Name: Kd

Compound: CCCN1C=CC=C2C(=O)NC(N)N=C21 (stereo not drawn)
Target Under Test: Dihydrofolate reductase (Homo sapiens, UniProt P00374)
Value: 5.8 µM
--
Compound: CCCN1C(C)=CC=C2C(=O)NC(N)N=C21 (stereo not drawn)
Target Under Test: Dihydrofolate reductase (Homo sapiens, UniProt P00374)
Value: 1.2 µM
--
Compound: CC1=C2C(=O)NC(N)N=C2N(CC(C)C)C=C1 (stereo not drawn)
Target Under Test: Dihydrofolate reductase (Homo sapiens, UniProt P00374)
Value: 2.6 µM

###

Biological target: Dihydrofolate reductase (Homo sapiens)
Sequence (P00374 whole entry): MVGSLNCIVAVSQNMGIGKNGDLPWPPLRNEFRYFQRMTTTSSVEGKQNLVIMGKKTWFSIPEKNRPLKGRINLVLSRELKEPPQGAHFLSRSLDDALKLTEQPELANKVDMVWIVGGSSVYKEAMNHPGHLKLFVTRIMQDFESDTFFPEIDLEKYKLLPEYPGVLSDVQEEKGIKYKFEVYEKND
Assay: Tested for the apparent dissociation constant for binding of compound to ternary NADPH complex with human dihydrofolate reductase using equation 4
Recorded Kd, one value per entry.
Measure Name: Kd (nM)

Molecule: CCCN1C(C)=CC=C2C(=O)NC(N)N=C21 (stereo not drawn)
Target Under Test: Dihydrofolate reductase (Homo sapiens)
Measure Name: Kd
Value Units: nM
Value: 0.6
//
Molecule: CCCN1C=CC=C2C(=O)NC(N)N=C21 (stereo not drawn)
Target Under Test: Dihydrofolate reductase (Homo sapiens)
Measure Name: Kd
Value Units: nM
Value: 2.6
//
Molecule: CC1=C2C(=O)NC(N)N=C2N(CC(C)C)C=C1 (stereo not drawn)
Target Under Test: Dihydrofolate reductase (Homo sapiens)
Measure Name: Kd
Value Units: nM
Value: 0.1
